From: the RNAGym collection of RNA variant scans (doi:10.7554/elife.80360)

B1: HDV Ribozyme (parent)
chain: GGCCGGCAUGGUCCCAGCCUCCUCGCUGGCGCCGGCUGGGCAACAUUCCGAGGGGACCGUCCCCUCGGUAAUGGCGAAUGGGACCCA

- Variants of: B1
- experiment: self-cleavage, relative activity (ratio to wild type); higher = more cleavage; co-transcriptional
The entries below come with measured self-cleavage values attached.
metric: self-cleavage

1) GGCCGGCAAGGUCCCAGCCUCCUCGCUGGCUCCGGCUGGGCAACAUUCCGAGGGGACCGUCCCCUCGGUAAUGGCGAAUGGGACCCA [U9A G31U] : 0.208
2) GGCCGGCAUGGUCCCAGCCUCCGCGCUGGCGCCGGCUGGGCAACAUUCCGAGGGGACCGUCCCCUCGGUACUGGCGAAUGGGACCCA [U23G A71C] : 0.256
3) GGCCGGCAUGGUCCCAGCCUCCUCGCUGGCGCCGGUUGGGCAACAUUCCGAGGGGACCGUCCCCUCGGUAAAGGCGAAUGGGACCCA [C36U U72A] : 0.324
4) GGCCGGCAUGGUCCCAGCCUCCUCGCUGGCGCGGGCUGGGCAACAUUCCGAGGGGACCGUCCCCUCGGUAAUUGCGAAUGGGACCCA [C33G G73U] : 0.138
5) GGCCGGCAAGGUCCCAGCCUCCUCGCUGGCGCCGGCUGGGCAACAUUCCGAGGGGACCGUCCCCUCGAUAAUGGCGAAUGGGACCCA [U9A G68A] : 0.955
6) GGCCGGCAUGGUCGCAGCCUCCUCGCUGGCGCCGGCUGGGCAACAUUCCGAGGGGACCGUCCCCUCGGUAAUGGCGAAUGGGCCCCA [C14G A83C] : 0
7) GGCCGGCAUGGUCCCAGCCUCCUCGCUGGCGCAGGCUGGGCAACAUUCCGAGGGGACCGUCCCCUCAGUAAUGGCGAAUGGGACCCA [C33A G67A] : 0.273
8) GGCCGGCAUGGUCCCAGCGUCCUCGCUGGCGCCGGCUGGGCAACAUUCCGAGGGGACCGUCCCCUCGGUAAUGGCGAGUGGGACCCA [C19G A78G] : 0.0875
9) GGCCGCCAGGGUCCCAGCCUCCUCGCUGGCGCCGGCUGGGCAACAUUCCGAGGGGACCGUCCCCUCGGUAAUGGCGAAUGGGACCCA [G6C U9G] : 0.208
10) GGCCGGCAUGAUCCCAGCCUCCUCGCUGGCGCCUGCUGGGCAACAUUCCGAGGGGACCGUCCCCUCGGUAAUGGCGAAUGGGACCCA [G11A G34U] : 0.219
11) GGCCGGCAUGGUCCCAGCCUCAUCACUGGCGCCGGCUGGGCAACAUUCCGAGGGGACCGUCCCCUCGGUAAUGGCGAAUGGGACCCA [C22A G25A] : 0.0369
12) GGCCGGCAUGGUCCCAGCCUCCUCGCUGGCGCCGGCUGGGCAAAAUUCCGAGGGGACCGUCCCCUCGGUAAUGGCGCAUGGGACCCA [C44A A77C] : 0.128
13) GGCCGGCAUGGUCCCAGCCUCCUCGCUGGCGCCGGCUGGGCAACAUUCCGAGGGGACCGUACCCUCGGUAAUGGCGAAUCGGACCCA [C61A G80C] : 0.201
14) GGCCGGCAUGGCCCCAGCCUCCUCGCUGACGCCGGCUGGGCAACAUUCCGAGGGGACCGUCCCCUCGGUAAUGGCGAAUGGGACCCA [U12C G29A] : 0.0415
15) GGCCGGCAUGGUCCCAGCCUCCUCGCUGGCGCGGGCUGGGCAACAUUCCGAGGGGACCGUCCCCUCGGUAAUGGUGAAUGGGACCCA [C33G C75U] : 0.151
16) GGCCGGCAUGGUCCCAGCCUCCUCGCUGGCGCCGGCUGGGCAACAUUCCGAAGGGACCGUCCCCUCGGUAAUGGCGAAUGGGACCCC [G52A A87C] : 1.13
17) GGCCGGCAUGGACCCAGCCUCCUCGCUGGCGCCGGCUGGGCAACAUUCCGAGGGGACCUUCCCCUCGGUAAUGGCGAAUGGGACCCA [U12A G59U] : 0.214
18) GGCCGGCAUGGUCCCAGCCUCCUCGCUGGCGCCGGCUGGGCAACAUUCCGUGGGGACCGUGCCCUCGGUAAUGGCGAAUGGGACCCA [A51U C61G] : 0.831
19) GGCCGGCAUGGUCCCAGCCUCCUCGCUGGCGCCGGCUGGGCAACAUUCCAAGGGGACCGUCCCCUCGGUAAUGGCGAAUGGAACCCA [G50A G82A] : 0.614
20) CGCCGGCAUGGUCCCAGCCUCCUCGCUGGCGCCGGCUGGGCAACAUUCCGAGGGGACCGUCUCCUCGGUAAUGGCGAAUGGGACCCA [G1C C62U] : 0.282
21) GGCCGGCAUGGUCCCAGCCUCCUCGCUGGCGCCGGCUGUGCAACAUUCCGAGGGGACCGUCCCCUCGGUAAUGGCGAAAGGGACCCA [G39U U79A] : 0.148
22) GGCCGGCAUGGUCCCAGCCUCCUCGCUGGCGCCGGCUGGGCAACAUUCCGAGGGGACCGUCCCCUCGGUAAGGGCGAAUGGAACCCA [U72G G82A] : 0.0978
23) GGCCGGCAUGGUCCCAGCCUCCUCUCUGGCGCCGGCUGGGCAACAUUCCGAGGGGACCGUCCCCCCGGUAAUGGCGAAUGGGACCCA [G25U U65C] : 0.237
24) CGCCGGCAUGGUCCCAGCCUCCUCGCUGGCGCCGGCUGGGCAACAUUCCGAGGGGACCGUCCCCUCGGUAAUAGCGAAUGGGACCCA [G1C G73A] : 0.201
25) GGCCGGCAUGGUCCCAGCCUCCUCGCUGGCGCCGGCUGGGCAACAUUCCGAGGGGACCGUCCCCUCGGUAAUGGCGAACGGGACUCA [U79C C85U] : 0.499
26) GGCCGGCAUGGUCCCAGCCUCCUCGCUGGCGCCGGCUGGGCAACAUUCCGAGGGGACCGUCCCCUCGGUAAUGCCCAAUGGGACCCA [G74C G76C] : 0.185
27) GGCCGGCAUGGUCCCAGCCUCCUCGCUCGCGCCGGCUGGGCAACAUUCCGAGGGGACCAUCCCCUCGGUAAUGGCGAAUGGGACCCA [G28C G59A] : 0.185
28) GGCCGGCAUGGUCCCAGCCUCCUCGCUGGGGCCGGCUGGGCAACAUUCCGAGGGGACCGUCCCCUCGGUAAUGGCGACUGGGACCCA [C30G A78C] : 0.0744
29) GGCCGGCAUGGUCCCAGCCUCCUCGCUGGCGCCGGCUGGGCAACAUUCCGAGAGGACCGUCCCCUCGGUAACGGCGAAUGGGACCCA [G53A U72C] : 0.731
30) GGCCGGCAUGGUCCCAGCCUCCUCGCGGGCGCCGGCUGGGCAACAUUCCAAGGGGACCGUCCCCUCGGUAAUGGCGAAUGGGACCCA [U27G G50A] : 0.923
31) GGCCGGCAUGGUCCCAGCCUCCUCGCUGGGGCCGGCUGGGCAACAUUCCGAGGGGACCGUCCCCUCGGUAAUGGCGAAUGGGACCUA [C30G C86U] : 0.0332
32) GGCCGGCAUGGUCCCAGCCUCCUCGCUGGCGCCGGCUGGGCACCAUUCCGAGGCGACCGUCCCCUCGGUAAUGGCGAAUGGGACCCA [A43C G54C] : 0.403
33) GGCCGGCAUGGUCCCAGCCUCCUCGCUGGCGCCGUCUGGGCAACAUUCCGAGGGGACCGUCCCCUUGGUAAUGGCGAAUGGGACCCA [G35U C66U] : 0.459
34) GGCCGGCAUGGUCCCAGCCUCCUCGCUGGCGCAGGCUGGGCAACAUUCCGAGGGGACCGUCCCCCCGGUAAUGGCGAAUGGGACCCA [C33A U65C] : 0.158
35) GGCCGGCAUGGUCCCAGCCUCCUCGCUGGCGCCGGCUGCGCAACAUUCCGAGGGGACCGUCCCCUCGAUAAUGGCGAAUGGGACCCA [G39C G68A] : 0.241
36) GGCCGGCAUGGUCCCAGCCUCCUCGCUGGCGCCGGCUAGGCAACAUUCCGAGGGGAUCGUCCCCUCGGUAAUGGCGAAUGGGACCCA [G38A C57U] : 0.211
37) GGCCGGCAUGGUCCCAGCCUCCUCGCUGGCGCCGGCUGGGCAACUUUCCGAGGUGACCGUCCCCUCGGUAAUGGCGAAUGGGACCCA [A45U G54U] : 0.8
38) GGCCGGCAUGGUCCCAGCCUCCUCGCUGGCGCCGGCUGGGUAACAUUCCGAGGGGACCGUCCCCUCGGGAAUGGCGAAUGGGACCCA [C41U U69G] : 0.946
39) GGCCGGCAUGGUCCCAGCCUCCUCGCUGGCGCCGGCUGGGCAACAUUCCGAGGGGACCGUCCCCUCGGUAAUGGCGAAUGGAACCUA [G82A C86U] : 0.522
40) GGCCGGCAUGGUCCCAGCCUCCUCGCUGGCGCCGGCUGGGCUACAUUCCGAGGGGACCGUCCCCUAGGUAAUGGCGAAUGGGACCCA [A42U C66A] : 0.511
41) GGCCGCCAUGGUCCCAGCCUCCUCGCUGGCGCCUGCUGGGCAACAUUCCGAGGGGACCGUCCCCUCGGUAAUGGCGAAUGGGACCCA [G6C G34U] : 0
42) GGCCGGCAUGGUCCCAGCCUCCUGGCUGGCGCCGGCUGGGCAACAUUCCGAGGGGACCGUCCCCUCGGUAAUGGCGCAUGGGACCCA [C24G A77C] : 0.0386
43) GGCCGGCAUGGUCCCAGCCUCCUCGCUGGCGCCGGCUGGGCAACAUUCCGAGGGGAUCGUCCACUCGGUAAUGGCGAAUGGGACCCA [C57U C63A] : 1.01
44) GGCCGGCAUCGUCCCAGCCUCCUCGCUGGCGCCGGCUGGGCAACAUUCCGAGGGUACCGUCCCCUCGGUAAUGGCGAAUGGGACCCA [G10C G55U] : 0.831
45) GGCCGGCAUGGUCCCAGCCUCCUCGCUGGCGCCGGCUGGGCAACAUUCCGAGGGGACCGUCCCCUAGGUUAUGGCGAAUGGGACCCA [C66A A70U] : 1.08
46) GGCCGGCAUGGUCCCAGCCUCCUCGCUGGCGCCAGCUGGGCAACAUUUCGAGGGGACCGUCCCCUCGGUAAUGGCGAAUGGGACCCA [G34A C48U] : 0.132
